system: RAW-Dual; experiment: NF-kB SEAP reporter activity, fold change vs agonist alone; cytotoxicity flag (confluency mask): cytotoxic (confluency <70% of control); higher = enhanced NF-kB activity; conditions: agonist: Pam3CSK4 (TLR2/1) 0.1 ug/mL
Whole data set: some 2,900 compounds, median “NF-kB SEAP reporter activity, fold change vs agonist alone” near 0.99, cut for the highest 2% near 2.6. Shown is part of a subset that was picked to be rich in the highest values.
The threshold is inclusive: NF-kB SEAP reporter activity of exactly 1 counts as y; values below receive n.

COc1cc2nccc(Oc3ccc(NC(=O)Nc4ccc(F)cc4F)c(F)c3)c2cc1OC (library stock concentration (final ~1000-fold dilution): 10 mM) | n

Threshold query (NF-kB SEAP reporter activity >= 1) on O=C(Nc1ccc([N+](=O)[O-])cc1O)Nc1ccccc1Br (library stock concentration (final ~1000-fold dilution): 10 mM)
y

* * *

// reported NF-kB SEAP reporter activity for each item listed
test system: RAW-Dual; assay: NF-kB SEAP reporter activity, fold change vs agonist alone; cytotoxicity flag (confluency mask): cytotoxic (confluency <70% of control); higher = enhanced NF-kB activity; details: agonist: LPS (TLR4) 0.1 ug/mL
Whole data set: some 2,900 compounds, median “NF-kB SEAP reporter activity, fold change vs agonist alone” near 0.99, cut for the highest 2% near 2.6. The full list was thinned out, with the highest values kept by preference.
Answer as a number with no unit attached.

Take a look at these entries with their results.
C=C(C)C1CCC2(C(=O)O)CCC3(C)C(CCC4C5(C)CCC(OC(=O)CC(C)(C)C(=O)O)C(C)(C)C5CCC43C)C12 (stereo not given) (library stock concentration (final ~1000-fold dilution): 10 mM) | 1.79
CCC(N)CNc1ccnc(-c2cc(-c3cnn(C)c3)ccc2O)n1.Cl.Cl (stereo not given) (library stock concentration (final ~1000-fold dilution): 10 mM) | 0.267

Record request: NF-kB SEAP reporter activity value, item Cc1cc(Nc2ncc(Cl)c(Nc3ccccc3S(=O)(=O)C(C)C)n2)c(OC(C)C)cc1C1CCNCC1 (library stock concentration (final ~1000-fold dilution): 10 mM)
0.198

Endpoint output: NF-kB SEAP reporter activity of CCOc1cc(C(=O)N2CCC(N3CCN(C)CC3)CC2)ccc1Nc1ncc2c(n1)N(C1CCCC1)c1ccccc1C(=O)N2C (library stock concentration (final ~1000-fold dilution): 10 mM) . Value?
5.49

Report NF-kB SEAP reporter activity for CCOC(=O)C1=C(COCCN)NC(C)=C(C(=O)OC)C1c1ccccc1Cl.O=S(=O)(O)c1ccccc1 (stereo not given) (library stock concentration (final ~1000-fold dilution): 10 mM) please.
2.27

* * *

tested on: RAW-Dual; test: NF-kB SEAP reporter activity, fold change vs agonist alone; higher = enhanced NF-kB activity; settings: library stock concentration (final ~1000-fold dilution): 10 mM; cytotoxicity flag (confluency mask): not cytotoxic; agonist: Imiquimod (TLR7) […]
The full ranking holds about 2,900 compounds; the median of “NF-kB SEAP reporter activity, fold change vs agonist alone” is about 0.99, and the highest 2% start at about 2.6. The entries come from a sample that favours the highest values as a whole.
readout.name: NF-kB SEAP reporter activity
// return a plain number; no unit text

COc1ccc(/C=C/C(=O)O)cc1OC | 0.805
CN(C)CCOC(c1ccccc1)c1ccccc1.Cl | 1.39
COc1cc(-c2cc(-c3cccc(O)c3)cnc2N)cc(OC)c1OC | 1.24
Cl.NCc1c[nH]c(=S)n1C1CCc2c(F)cc(F)cc2C1 (stereo not given) | 1.12
COc1cc(N2CCN(C)CC2)ccc1Nc1ncc2c(n1)N(C)c1ccccc1C(=O)N2 | 0.928

Please find the next compound below.
Which NF-kB SEAP reporter activity value is on record for `Oc1ccc(-c2nc(-c3ccc(F)cc3)c(-c3ccncc3)[nH]2)cc1` ?
1.92

* * *

tested on: RAW-Dual; assay: NF-kB SEAP reporter activity, fold change vs agonist alone; cytotoxicity flag (confluency mask): not cytotoxic; higher = enhanced NF-kB activity; conditions: agonist: ODN 1826 (TLR9) 0.5 ug/mL
Over roughly 2,900 compounds, “NF-kB SEAP reporter activity, fold change vs agonist alone” has its median near 0.99; the highest 2% begin near 2.6. The list comes from a sample in which the highest values are over-represented; it also holds close analogues and randomly drawn compounds.
Item-by-item account of NF-kB SEAP reporter activity

Recorded results for 5 molecules are shown here.
COC1(c2sc3c(N4CCOCC4)nc(-c4cnc(N)nc4)nc3c2C)COC1 (library stock concentration (final ~1000-fold dilution): 10 mM) | 0.707
Cl.Cl.c1cc(-c2nc3ccc(OCCCN4CCCC4)cc3o2)ccc1OCCCN1CCCC1 (library stock concentration (final ~1000-fold dilution): 1 mM) | 0.224
CC(=O)OC1(C(C)=O)CCC2C3C=C(Cl)C4=CC(=O)C5CC5C4(C)C3CCC21C (stereo unspecified) (library stock concentration (final ~1000-fold dilution): 10 mM) | 1.01
COc1cc2ncnc(Nc3cc(Br)c(O)c(Br)c3)c2cc1OC (library stock concentration (final ~1000-fold dilution): 10 mM) | 0.951
Cc1c(CN2CCN(C(=O)C(C)O)CC2)sc2c(N3CCOCC3)nc(-c3cnc(N)nc3)nc12 (stereo unspecified) (library stock concentration (final ~1000-fold dilution): 10 mM) | 0.763

Reported NF-kB SEAP reporter activity, molecule C#Cc1cccc(Nc2ncnc3cc(OCCOC)c(OCCO)cc23)c1.Cl (library stock concentration (final ~1000-fold dilution): 10 mM) : ____
1.41

Query: NF-kB SEAP reporter activity; subject: Cn1cc(-c2cc(Oc3cc(F)c(NC(=O)C4(C(=O)Nc5ccccc5)CC4)cc3F)ccn2)cn1 (library stock concentration (final ~1000-fold dilution): 10 mM)
0.863

Would you kindly share the measured NF-kB SEAP reporter activity for COCCNCc1ccc(-c2cc3nccc(Oc4ccc(NC(=O)C5(C(=O)Nc6ccc(F)cc6)CC5)cc4F)c3s2)nc1 (library stock concentration (final ~1000-fold dilution): 10 mM) ?
0.205

Please give the measured NF-kB SEAP reporter activity for this molecule: CC(C)(C)NCC(O)COc1cccc2c1CCC(=O)N2.Cl (stereo unspecified) (library stock concentration (final ~1000-fold dilution): 10 mM)
1.05

Sample CCN(CC)C(=O)Nc1ccc(OCC(O)CNC(C)(C)C)c(C(C)=O)c1.Cl (stereo unspecified) (library stock concentration (final ~1000-fold dilution): 10 mM) — what was its NF-kB SEAP reporter activity?
2.46

Find the recorded NF-kB SEAP reporter activity belonging to COc1cc2nccc(Oc3ccc(NC(=O)C4(C(=O)Nc5ccc(F)cc5)CC4)cc3)c2cc1OC.O=C(O)CC(O)C(=O)O (library stock concentration (final ~1000-fold dilution): 10 mM) and report it.
0.525

* * *

Listed here: items and their measured NF-kB SEAP reporter activity.
test system: RAW-Dual; assay: NF-kB SEAP reporter activity, fold change vs agonist alone; cytotoxicity flag (confluency mask): not cytotoxic; higher = enhanced NF-kB activity; settings: agonist: Pam3CSK4 (TLR2/1) 0.1 ug/mL
Whole data set: some 2,900 compounds, median “NF-kB SEAP reporter activity, fold change vs agonist alone” near 0.99, cut for the highest 2% near 2.6. Only a selection was taken, and the highest values are over-represented in it overall.

Could you share which NF-kB SEAP reporter activity value was measured for COc1cc2ncc(-c3ccccc3)nc2cc1OC (library stock concentration (final ~1000-fold dilution): 10 mM) ?
0.864

Give the measured NF-kB SEAP reporter activity of Oc1ccc(-c2nc(-c3ccc(F)cc3)c(-c3ccncc3)[nH]2)cc1 (library stock concentration (final ~1000-fold dilution): 10 mM) .
1.2

Dear colleague, I am looking for the recorded NF-kB SEAP reporter activity of the following compound: Nc1ncn(C2OC(CO)C(O)C2O)c(=O)n1 (configuration not stated) (library stock concentration (final ~1000-fold dilution): 10 mM)
0.71

Entry under review: Cl.O=C1Cc2cc(CCN3CCN(c4nsc5ccccc45)CC3)c(Cl)cc2N1 (library stock concentration (final ~1000-fold dilution): 10 mM) . Reported NF-kB SEAP reporter activity?
0.865

Data request, read-out NF-kB SEAP reporter activity, for CS(=O)(=O)c1ccc(Oc2cc(F)cc(C#N)c2)c2c1C(O)C(F)(F)C2 (configuration not stated) (library stock concentration (final ~1000-fold dilution): 10 mM)
1.2

Requested field: NF-kB SEAP reporter activity. Item: CC12CCC3c4ccc(O)cc4CC(CCCCCCCCCS(=O)CCCC(F)(F)C(F)(F)F)C3C1CCC2O (configuration not stated) (library stock concentration (final ~1000-fold dilution): 10 mM)
0.864

Returns the measured NF-kB SEAP reporter activity for the input compound. Input: CC1c2cccc(O)c2C(=O)C2=C(O)C3(O)C(=O)C(C(N)=O)=C(O)C(N(C)C)C3C(O)C21.CC1c2cccc(O)c2C(=O)C2=C(O)C3(O)C(=O)C(C(N)=O)=C(O)C(N(C)C)C3C(O)C21.CCO.Cl.Cl.O (configuration not stated) (library stock concentration (final ~1000-fold dilution): 10 mM)
0.938

Name the recorded NF-kB SEAP reporter activity for Nc1ccn(C2OC(CO)C(O)C2O)c(=O)n1 (configuration not stated) (library stock concentration (final ~1000-fold dilution): 10 mM water) .
1.83
